Cited source for all entries: the supplement of paper PMC10567573

B1: C2CD2L (parent)
chain: LTLKVLRSSSCGDTELLGQATLPV

Variants of: B1
PROCEDURE DETAILS: protein stability index of a GFP-peptide fusion (GPS, HEK-293T) (PSI 1-6); higher = more stable;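 further: lentivirally expressed fusions sorted by FACS into six bins by GFP to DsRed ratio, PSI derived from sequencing read proportions per bin multiplied by bin number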
CONDITION: c terminus: a fixed tail appended
Please provide measured protein stability index for the entries that follow.
Just the number.

Fill in: protein stability index of LTLKVLRSSSCGDTTLLGQATLPV [E15T] is ___
2.83

Fill in: protein stability index of LTLKVLRSSSQGDTELLGQATLPV [C11Q] is ___
1.43

Fill in: protein stability index of LTTKVLRSSSCGDTELLGQATLPV [L3T] is ___
2.71

Fill in: protein stability index of LTLKVLRSSSCGDNELLGQATLPV [T14N] is ___
1.91

Fill in: protein stability index of LTLKVLRSSECGDTELLGQATLPV [S10E] is ___
1.75

Fill in: protein stability index of LTLKVLRSSSCGDTELLGQMTLPV [A20M] is ___
2.92

Fill in: protein stability index of LTLKVPRSSSCGDTELLGQATLPV [L6P] is ___
2.24

Fill in: protein stability index of LTLKVLRSSICGDTELLGQATLPV [S10I] is ___
1.76

Fill in: protein stability index of LTLKVLRSSSTGDTELLGQATLPV [C11T] is ___
2.36

Fill in: protein stability index of LTLKVLRSSSCGDTELMGQATLPV [L17M] is ___
1.11

Fill in: protein stability index of LTLKVLRSSSCGDTEPLGQATLPV [L16P] is ___
1.97

Fill in: protein stability index of LTLKVLHSSSCGDTELLGQATLPV [R7H] is ___
2.61

Fill in: protein stability index of LTLKVLRSSSCGDTYLLGQATLPV [E15Y] is ___
2.19

Fill in: protein stability index of LALKVLRSSSCGDTELLGQATLPV [T2A] is ___
1.66

Fill in: protein stability index of LTLKVLRSSSCGDTELDGQATLPV [L17D] is ___
2.89

Fill in: protein stability index of LTLKVLRSSSCGITELLGQATLPV [D13I] is ___
3.63

Fill in: protein stability index of LTLKVLRSSSCGDTEKLGQATLPV [L16K] is ___
1.9

Fill in: protein stability index of LYLKVLRSSSCGDTELLGQATLPV [T2Y] is ___
2.94

Fill in: protein stability index of LTLKVLRSSSCGDTEYLGQATLPV [L16Y] is ___
1.37

Fill in: protein stability index of LTLKVLRSSLCGDTELLGQATLPV [S10L] is ___
2.44

Fill in: protein stability index of LTLKVLRSSSCGDTELLGVATLPV [Q19V] is ___
1.43

Fill in: protein stability index of LTLKVLRSSSCGDTELLGWATLPV [Q19W] is ___
3.5
